meta.source: paper PMC2217202

TARGET_ENTITY: AE1 (band 3) protein in human red blood cells (Homo sapiens)
PROCEDURE_DETAILS: Inhibition of 36Cl exchange flux at 0°C after equilibration with WW781
Format: cell-based
DETAILS: read-out: K eqW,Ei (minimum value); range over both estimates of K eqW,E
MEASURED_QUANTITY: Ki

q: Reported Ki for AE1 (band 3) protein in human red blood cells (Homo sapiens), given CCCCN1C(=O)C(C=CC=CC=C2C(=O)N(c3ccc(S(=O)(=O)O)cc3)N=C2C)C(=O)N(CCCC)C1=O ?
a: 33 to 46 nM

###

TARGET_ENTITY: AE1 (band 3) protein in human red blood cells (Homo sapiens, UniProt P02730)
Sequence (P02730 whole entry): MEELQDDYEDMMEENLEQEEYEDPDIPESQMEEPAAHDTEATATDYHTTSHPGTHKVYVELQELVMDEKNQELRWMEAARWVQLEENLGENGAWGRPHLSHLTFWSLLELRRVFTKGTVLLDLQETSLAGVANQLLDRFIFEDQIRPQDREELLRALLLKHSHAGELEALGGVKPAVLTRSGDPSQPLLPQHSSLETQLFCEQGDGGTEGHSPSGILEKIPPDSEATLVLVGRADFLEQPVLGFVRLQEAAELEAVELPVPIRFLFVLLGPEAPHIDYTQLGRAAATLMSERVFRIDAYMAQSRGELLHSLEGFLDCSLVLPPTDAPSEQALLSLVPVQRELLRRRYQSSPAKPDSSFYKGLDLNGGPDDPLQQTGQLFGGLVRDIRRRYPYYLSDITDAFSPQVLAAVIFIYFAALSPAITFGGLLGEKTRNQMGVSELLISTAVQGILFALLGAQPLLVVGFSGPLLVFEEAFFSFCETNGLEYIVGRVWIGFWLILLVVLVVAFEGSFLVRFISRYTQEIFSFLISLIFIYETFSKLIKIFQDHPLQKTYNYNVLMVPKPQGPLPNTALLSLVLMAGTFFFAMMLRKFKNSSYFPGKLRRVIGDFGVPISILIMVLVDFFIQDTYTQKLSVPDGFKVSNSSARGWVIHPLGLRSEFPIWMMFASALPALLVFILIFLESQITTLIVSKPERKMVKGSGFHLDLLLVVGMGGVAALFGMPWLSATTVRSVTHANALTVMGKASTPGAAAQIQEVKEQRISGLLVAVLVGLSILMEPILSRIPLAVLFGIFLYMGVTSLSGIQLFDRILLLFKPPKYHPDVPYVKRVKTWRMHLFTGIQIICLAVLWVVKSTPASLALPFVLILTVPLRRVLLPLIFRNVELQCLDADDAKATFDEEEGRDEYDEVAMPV
PROCEDURE_DETAILS: Inhibition of 36Cl exchange flux at 0°C after short exposure to WW781
Format: cell-based
DETAILS: read-out: K 1W; [Cli = o] 150 mM, 0°C, mean ± SEM
MEASURED_QUANTITY: pIC50
# pIC50 is unitless: minus log10 of the molar concentration; print number only

q: Can you share its pIC50? I mean this compound: CCCCN1C(=O)C(C=CC=CC=C2C(=O)N(c3ccc(S(=O)(=O)O)cc3)N=C2C)C(=O)N(CCCC)C1=O [WW781]
a: 6.23
